# inhibition (INH) values compiled below
# experimental protocol: Antioxidant activity assessed as DPPH free radical scavenging activity at 50 ug/ml after 20 mins by UV-vis spectrophotometry analysis
# Assay type: physicochemical
Give just the numeric value; % need not be written.

Cc1cc(=O)oc2c(-c3nn(-c4ccc(F)cc4)cc3C=O)c(O)c(-c3nn(-c4ccc(F)cc4)cc3C=O)cc12: 14.93
C/C(=N\Nc1ccc(F)cc1)c1cc2c(C)cc(=O)oc2c(/C(C)=N/Nc2ccc(F)cc2)c1O: 11.69
Cc1cc(=O)oc2c(-c3nn(-c4ccc(Cl)cc4)cc3C=O)c(O)c(-c3nn(-c4ccc(Cl)cc4)cc3C=O)cc12: 17.55
COc1ccc(N/N=C(\C)c2cc3c(C)cc(=O)oc3c(/C(C)=N/Nc3ccc(OC)cc3)c2O)cc1: 17.17

Continue with the next compound.
Query block: Reported inhibition (INH), compound Cc1cc(=O)oc2c(-c3nn(-c4ccccc4)cc3C=O)c(O)c(-c3nn(-c4ccccc4)cc3C=O)cc12 : ____
Result block: 17.34
